testSystem: SARS-CoV-2 hexaproline stabilized pre-fusion spike glycoprotein (S6P) (SARS-CoV-2, ancestral (Wuhan-Hu-1 …, UniProt P0DTC2, stabilised))
valueType: binding result

INSERT INTO assay_data (binder, valuetype, valuereported) VALUES
  ('COVA2-14 (antibody, V domains shown) VH: QVQLVQSGAEVKKPGSSVKVSCKASGGTFSSYAIIWVRQAPGQGLEWMGGIIPIFGTANYAQKFQGRVTITTDESTSTAYMELSSLRSEDTAVYYCARVRYYDSSGYYEDYWGQGTLVTVSS VL: EIVLTQSPATLSLSPGERATLSCRASQSVSSYLAWYQQEPGQAPRLLIYDASNRATGIPARFSGSGSGTDFTLTISSLEPEDFAVYYCQQRSNWPPMYTFGQGTKVEIK', 'binding result', 'binds'),
  ('COVA1-07 (antibody, V domains shown) VH: QVQLVESGAEVKKPGSSVKVSCKASGGTLSSYAITWVRQAPGQGLEWVGGIIPIFGTANYAQKFQGRVTITADESTSTAYMELSSLRSEDTAVYYCARVGAYDSSGYSNDYWGQGTLVTVSS VL: DIQLTQSPATLSLSPGERATLSCRASQSVSSYLAWYQQKPGQAPRLLIYDASNRATGIPARFSGSGSGTDFTLTISSLEPEDFAVYYCQQRSNWPPRVTFGGGTKVEIK', 'binding result', 'binds'),
  ('C105 (antibody, V domains shown) VH: QVQLVESGGGLIQPGGSLRLSCAASGFTVSSNYMSWVRQAPGKGLEWVSVIYSGGSTYYADSVKGRFTISRDNSKNTLYLQMNSLRAEDTAVYYCARGEGWELPYDYWGQGTLVTVSS VL: QSALTQPPSGSGSPGQSVTISCTGTSSDVGGYKYVSWYQQHPGKAPKLMIYEVSKRPSGVPDRFSGSKSGNTASLTVSGLQAEDEADYYCSSYEGSNNFVVFGGGTKLTVL', 'binding result', 'binds');
